Tested on: HeLa Kyoto
method-notes: solubility in G1/S (NP-40 vs SDS abundance) (log2 ratio); higher = more soluble
conditions-used: cell cycle stage: G1/S
readout-kind: solubility in G1/S (log2)
Please give only the number in your answer, with no unit.

Input: Item under review: MDTPLRRSRRLGGLRPESPESLTSVSRTRRALVEFESNPEETREPGSPPSVQRAGLGSPERPPKTSPGSPRLQQGAGLESPQGQPEPGAASPQRQQDLHLESPQRQPEYSPESPRCQPKPSEEAPKCSQDQGVLASELAQNKEELTPGAPQHQLPPVPGSPEPYPGQQAPGPEPSQPLLELTPRAPGSPRGQHEPSKPPPAGETVTGGFGAKKRKGSSSQAPASKKLNKEELPVIPKGKPKSGRVWKDRSKKRFSQMLQDKPLRTSWQRKMKERQERKLAKDFARHLEEEKERRRQEKKQRRAENLKRRLENERKAEVVQVIRNPAKLKRAKKKQLRSIEKRDTLALLQKQPPQQPAAKI [CCDC86] . Reported solubility in G1/S (log2)?
Output: -1.03

----------
Each item that follows carries a reported thermal stability score.
Tested on: HeLa Kyoto
method-notes: thermal stability score vs G1/S (z-score of summed log2 fold changes over temperatures); higher = more thermally stable than in G1/S
conditions-used: cell cycle stage: mitosis
Please give only the number in your answer, with no unit.

Please review the following examples before continuing.
MAGSVADSDAVVKLDDGHLNNSLSSPVQADVYFPRLIVPFCGHIKGGMRPGKKVLVMGIVDLNPESFAISLTCGDSEDPPADVAIELKAVFTDRQLLRNSCISGERGEEQSAIPYFPFIPDQPFRVEILCEHPRFRVFVDGHQLFDFYHRIQTLSAIDTIKINGDLQITKLG [LGALSL]    -0.222
MAAYKLVLIRHGESAWNLENRFSGWYDADLSPAGHEEAKRGGQALRDAGYEFDICFTSVQKRAIRTLWTVLDAIDQMWLPVVRTWRLNERHYGGLTGLNKAETAAKHGEAQVKIWRRSYDVPPPPMEPDHPFYSNISKDRRYADLTEDQLPSCESLKDTIARALPFWNEEIVPQIKEGKRVLIAAHGNSLRGIVKHLEGLSEEAIMELNLPTGIPIVYELDKNLKPIKPMQFLGDEETVRKAMEAVAAQGKAKK [PGAM1]    -2.07

Input: Item under review: MAHAPARCPSARGSGDGEMGKPRNVALITGITGQDGSYLAEFLLEKGYEVHGIVRRSSSFNTGRIEHLYKNPQAHIEGNMKLHYGDLTDSTCLVKIINEVKPTEIYNLGAQSHVKISFDLAEYTADVDGVGTLRLLDAVKTCGLINSVKFYQASTSELYGKVQEIPQKETTPFYPRSPYGAAKLYAYWIVVNFREAYNLFAVNGILFNHESPRRGANFVTRKISRSVAKIYLGQLECFSLGNLDAKRDWGHAKDYVEAMWLMLQNDEPEDFVIATGEVHSVREFVEKSFLHIGKTIVWEGKNENEVGRCKETGKVHVTVDLKYYRPTEVDFLQGDCTKAKQKLNWKPRVAFDELVREMVHADVELMRTNPNA [GMDS] . Reported thermal stability score?
Output: -1.35

----------
Each item that follows carries a reported solubility change mitosis (log2).
System: HeLa Kyoto
method-notes: solubility change mitosis vs G1/S (difference of NP-40 vs SDS log2 ratios) (log2 ratio difference); higher = more soluble in mitosis

Please review the following examples before continuing.
MENGYTYEDYKNTAEWLLSHTKHRPQVAIICGSGLGGLTDKLTQAQIFDYGEIPNFPRSTVPGHAGRLVFGFLNGRACVMMQGRFHMYEGYPLWKVTFPVRVFHLLGVDTLVVTNAAGGLNPKFEVGDIMLIRDHINLPGFSGQNPLRGPNDERFGDRFPAMSDAYDRTMRQRALSTWKQMGEQRELQEGTYVMVAGPSFETVAECRVLQKLGADAVGMSTVPEVIVARHCGLRVFGFSLITNKVIMDYESLEKANHEEVLAAGKQAAQKLEQFVSILMASIPLPDKAS [PNP]    -0.144
MSGDTCLCPASGAKPKLSGFKGGGLGNKYVQLNVGGSLYYTTVRALTRHDTMLKAMFSGRMEVLTDKEGWILIDRCGKHFGTILNYLRDDTITLPQNRQEIKELMAEAKYYLIQGLVNMCQSALQDKKDSYQPVCNIPIITSLKEEERLIESSTKPVVKLLYNRSNNKYSYTSNSDDHLLKNIELFDKLSLRFNGRVLFIKDVIGDEICCWSFYGQGRKLAEVCCTSIVYATEKKQTKVEFPEARIYEETLNVLLYETPRVPDNSLLEATSRSRSQASPSEDEETFELRDRVRRIHVKRYSTYDDRQLGHQSTHRD [TNFAIP1]    0.627

Continue with the next sequence.
Input: Item under review: MLDSLLALGGLVLLRDSVEWEGRSLLKALVKKSALCGEQVHILGCEVSEEEFREGFDSDINNRLVYHDFFRDPLNWSKTEEAFPGGPLGALRAMCKRTDPVPVTIALDSLSWLLLRLPCTTLCQVLHAVSHQDSCPGDSSSVGKVSVLGLLHEELHGPGPVGALSSLAQTEVTLGGTMGQASAHILCRRPRQRPTDQTQWFSILPDFSLDLQEGPSVESQPYSDPHIPPVDPTTHLTFNLHLSKKEREARDSLILPFQFSSEKQQALLRPRPGQATSHIFYEPDAYDDLDQEDPDDDLDI [ELP5] . Reported solubility change mitosis (log2)?
Output: -0.11
